Measured values drawn from patent US7488730B2 for this set.

Target: 5-HT1A receptors (Rattus norvegicus)
Sequence (P19327 1-422): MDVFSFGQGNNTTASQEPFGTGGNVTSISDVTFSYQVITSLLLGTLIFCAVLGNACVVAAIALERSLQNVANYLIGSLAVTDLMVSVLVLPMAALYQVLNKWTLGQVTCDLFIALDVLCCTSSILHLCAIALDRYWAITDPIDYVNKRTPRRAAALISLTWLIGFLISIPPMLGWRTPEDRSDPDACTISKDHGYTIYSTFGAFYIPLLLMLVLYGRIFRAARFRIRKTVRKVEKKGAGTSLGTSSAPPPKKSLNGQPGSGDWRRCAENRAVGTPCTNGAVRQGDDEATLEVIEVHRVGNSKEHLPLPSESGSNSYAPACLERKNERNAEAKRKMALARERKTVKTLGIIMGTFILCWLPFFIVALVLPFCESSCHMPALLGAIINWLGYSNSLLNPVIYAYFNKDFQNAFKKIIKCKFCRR
Conditions: read-out: Ki, nM 5-HT1A; [3H]-8-OH-DPAT, rat hippocampal membranes
readout.name: log10 Ki (log10 of the value in nM)
In our notation, the value equals log10 of Ki in nM.

Sure, the documented log10 Ki for CC(=O)c1ccccc1N1CCN(CCCCCC(=O)NC2CCCc3ccccc32)CC1 (stereo not drawn) is 0.58

Sure, the documented log10 Ki for COc1ccccc1N1CCN(CCCCCC(=O)NC2CCCc3c(OC)cccc32)CC1 (stereo not drawn) is 1.39
